Reference for the values: patent US20210371518A1

measurement-target: LILRA2 (human (not printed on the sheet), UniProt Q8N149)
Sequence (Q8N149 24-449 limits assumed): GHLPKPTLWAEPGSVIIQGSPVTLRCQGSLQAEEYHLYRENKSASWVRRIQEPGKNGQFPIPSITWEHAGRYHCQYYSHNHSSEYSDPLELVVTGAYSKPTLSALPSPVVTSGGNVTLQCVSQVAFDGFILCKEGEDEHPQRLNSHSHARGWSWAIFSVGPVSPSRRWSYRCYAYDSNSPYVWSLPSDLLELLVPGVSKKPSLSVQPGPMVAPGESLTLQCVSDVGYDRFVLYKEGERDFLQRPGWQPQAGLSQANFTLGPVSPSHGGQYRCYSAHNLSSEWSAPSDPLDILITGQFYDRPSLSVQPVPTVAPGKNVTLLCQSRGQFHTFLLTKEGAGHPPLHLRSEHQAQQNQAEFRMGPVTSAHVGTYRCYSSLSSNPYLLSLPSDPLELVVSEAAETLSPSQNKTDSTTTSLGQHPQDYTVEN
measurement-protocol: LILR reporter cells on coated antibody, GFP positive (%)

{"columns": ["binder", "binding result"],
 "data": [
  ["h193 antibody No. 23 (h193-H4 / h193-K1) (antibody, V domains shown) VH: EVQLVESGGGLVQPGGSLRLSCAASGFSLSSSYWISWVRQAPGKGLEWVSSIDSGSVGITYYATWAKGRFTISRDNSKNTLYLQMNSLRAEDTAVYYCARHGDNWALDLWGQGTLVTVSS VL: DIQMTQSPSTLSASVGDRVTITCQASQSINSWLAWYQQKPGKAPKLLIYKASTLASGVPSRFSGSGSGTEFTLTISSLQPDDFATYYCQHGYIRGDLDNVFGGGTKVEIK", "no binding"],
  ["h193 antibody No. 35 (h193-H7 / h193-K1) (antibody, V domains shown) VH: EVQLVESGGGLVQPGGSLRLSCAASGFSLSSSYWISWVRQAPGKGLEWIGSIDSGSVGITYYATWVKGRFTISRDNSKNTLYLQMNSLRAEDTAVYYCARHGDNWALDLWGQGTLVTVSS VL: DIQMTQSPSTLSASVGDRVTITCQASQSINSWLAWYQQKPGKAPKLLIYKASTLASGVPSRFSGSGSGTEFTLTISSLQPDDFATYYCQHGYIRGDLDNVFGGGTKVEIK", "no binding"]
]}
